assay.summary: Fraction unbound in human plasma
Format: ADME, cell-free
test.readout: fraction unbound

P: O=C(O[C@@H]1CC[C@@H](c2cccc(F)c2F)[C@H](O)c2cccnc21)N1CCC(n2c(=O)[nH]c3ncccc32)CC1
Q: N[C@@H]1c2cccnc2[C@H](OC(=O)N2CCC(n3c(=O)[nH]c4ncccc43)CC2)CC[C@H]1c1cccc(F)c1F [RIMEGEPANT]
Incoming: Quick check, higher fraction unbound between P and Q ? Kindly give the label for the entry you pick.
Outgoing: Q
(Q: 0.069, P: 0.041)

====

target.entity: Cytochrome P450 2B6 (Homo sapiens, UniProt P20813)
Sequence (P20813 whole entry): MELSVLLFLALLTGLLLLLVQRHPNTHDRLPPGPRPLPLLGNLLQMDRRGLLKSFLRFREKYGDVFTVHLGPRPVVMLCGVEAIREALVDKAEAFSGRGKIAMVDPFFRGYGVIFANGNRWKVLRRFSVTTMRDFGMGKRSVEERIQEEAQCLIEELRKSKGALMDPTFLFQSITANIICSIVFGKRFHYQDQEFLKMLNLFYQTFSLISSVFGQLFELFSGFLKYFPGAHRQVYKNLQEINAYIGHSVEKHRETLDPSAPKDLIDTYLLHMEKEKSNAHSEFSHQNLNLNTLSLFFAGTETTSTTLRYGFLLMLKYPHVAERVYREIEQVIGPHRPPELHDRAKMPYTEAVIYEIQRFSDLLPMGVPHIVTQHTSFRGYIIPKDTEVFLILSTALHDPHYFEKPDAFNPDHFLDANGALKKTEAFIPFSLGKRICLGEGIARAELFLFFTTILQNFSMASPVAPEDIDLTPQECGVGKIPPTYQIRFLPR
assay.summary: Inhibition of human recombinant CYP2B6 after 45 mins by fluorescence assay
test.readout: IC50

molecule N[C@@H]1c2cccnc2[C@H](OC(=O)N2CCC(n3c(=O)[nH]c4ncccc43)CC2)CC[C@H]1c1cccc(F)c1F [RIMEGEPANT] , IC50 observed: ≥ 20 µM

====

target.entity: Cytochrome P450 2E1 (Homo sapiens)
Sequence (P05181 whole entry): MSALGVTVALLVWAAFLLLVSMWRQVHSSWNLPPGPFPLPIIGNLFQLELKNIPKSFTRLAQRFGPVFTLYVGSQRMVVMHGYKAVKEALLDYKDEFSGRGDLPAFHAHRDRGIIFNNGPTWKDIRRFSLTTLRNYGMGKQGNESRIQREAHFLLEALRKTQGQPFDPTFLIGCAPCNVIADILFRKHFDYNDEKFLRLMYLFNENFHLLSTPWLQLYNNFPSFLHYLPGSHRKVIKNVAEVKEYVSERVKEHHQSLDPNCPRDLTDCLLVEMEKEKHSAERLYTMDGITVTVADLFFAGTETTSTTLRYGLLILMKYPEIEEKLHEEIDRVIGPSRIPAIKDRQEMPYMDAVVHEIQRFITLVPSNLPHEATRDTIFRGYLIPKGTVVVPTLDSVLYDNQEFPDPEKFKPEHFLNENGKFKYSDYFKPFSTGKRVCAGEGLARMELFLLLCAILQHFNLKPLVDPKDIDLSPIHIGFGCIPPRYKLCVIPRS
assay.summary: Inhibition of human recombinant CYP2E1 after 45 mins by fluorescence assay
Format: ADME
test.readout: IC50

molecule `N[C@@H]1c2cccnc2[C@H](OC(=O)N2CCC(n3c(=O)[nH]c4ncccc43)CC2)CC[C@H]1c1cccc(F)c1F` , IC50 observed: ≥ 20 µM

====

target.entity: Cytochrome P450 2C19 (Homo sapiens)
Sequence (P33261 whole entry): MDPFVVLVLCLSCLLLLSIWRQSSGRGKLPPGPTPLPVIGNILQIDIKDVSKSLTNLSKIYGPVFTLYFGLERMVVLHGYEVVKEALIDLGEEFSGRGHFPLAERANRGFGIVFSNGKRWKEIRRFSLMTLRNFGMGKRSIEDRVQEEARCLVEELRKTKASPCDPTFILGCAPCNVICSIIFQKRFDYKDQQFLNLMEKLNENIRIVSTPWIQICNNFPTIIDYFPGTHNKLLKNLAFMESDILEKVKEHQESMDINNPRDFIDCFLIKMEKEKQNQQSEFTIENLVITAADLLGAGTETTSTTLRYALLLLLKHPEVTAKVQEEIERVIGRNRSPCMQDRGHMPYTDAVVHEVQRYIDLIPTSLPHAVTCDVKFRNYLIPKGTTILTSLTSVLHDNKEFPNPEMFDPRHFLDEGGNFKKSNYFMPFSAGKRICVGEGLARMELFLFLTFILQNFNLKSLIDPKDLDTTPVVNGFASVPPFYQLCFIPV
assay.summary: Inhibition of human recombinant CYP2C19 using 3-cyano-7-ethoxycoumarine as substrate after 45 mins by fluorescence assay
pIC50: −log10 of the molar value.
test.readout: pIC50

molecule N[C@@H]1c2cccnc2[C@H](OC(=O)N2CCC(n3c(=O)[nH]c4ncccc43)CC2)CC[C@H]1c1cccc(F)c1F [RIMEGEPANT] , pIC50 observed: ≤ 4.70

====

assay.summary: Aqueous solubility of the compound in amorphous form
Format: physicochemical
test.readout: solubility (µg/mL)
Number in µg/mL, nothing else.

compound `O=C(O[C@@H]1CC[C@@H](c2cccc(F)c2F)[C@H](O)c2cccnc21)N1CCC(n2c(=O)[nH]c3ncccc32)CC1` , solubility observed: 66
